The measurements presented in this section are drawn from PubChem BioAssay (NCI).

test: NCI Yeast Anticancer Drug Screen. Data for the bub3 strain (AID 167); conditions: S. cerevisiae bub3 mutant strain, at 50.0 µM, active compounds read high
About 79,000 compounds went through this panel and 15% of them were active in at least one assay; those are over-represented in the sample as a whole. Where a SMILES comes first, the peptide text is derived from it.
Observable: growth inhibition (%)
Provide the reading as a plain figure in %.

Can you look up the measured growth inhibition of COC(=O)c1sc(C(=O)OC)c2c1CS(=O)C2 for me?
5.45

Check CC(C)[O-].CC(C)[O-].O=c1cccccc1[O-].O=c1cccccc1[O-].[Ti+4] too.
-1.5

Can you handle CC(=O)Nc1c(C)cccc1F next?
3.3

Same lookup for Cn1cnc2c([nH]c(=O)n2C2OC(CO)C(O)C2O)c1=N (centres undefined) , please.
3.55

Please give the result for O=C(O)C1(CC(CCCN2CCCCC2)c2ccccc2)CCCC1 (centres undefined) too.
-15.4

Try the compound NC(CCC(N)C(=O)c1ccccc1)C(=O)c1ccccc1 (centres undefined)
-8.8

Could you do the same for CN(CC(=O)C(O)C(O)C(O)CO)c1ccccc1 (centres undefined) , please?
-2.6

Also, CC(=O)NC(C(=O)NC(C)C(=O)N1CCCC1C(=O)O)C(C)C (stereo not drawn) (Ac-Val-Ala-Pro-OH; configuration not given here) please.
0.6

Lookup Cc1ccc(N=C2C(c3ccccc3)=C(SC3=C(c4ccccc4)C(=Nc4ccc(C)cc4)c4ccccc43)c3ccccc32)cc1
-3

Another compound to check: COc1cc(OC)c(NC(=O)/C=C/c2ccccc2)cc1Cl
11.2

Next compound: Cc1ccccc1N1CCOS(=O)OC(C)C1 (centres undefined)
55.3

Also need O=C1NC(CCl)(CCl)CO1 , thanks.
-2.05

Here is the next compound: c1ccc(-c2ccc(-c3ccccc3)c3nonc23)cc1
27.4

Subsequent entry: CCOC(Cn1ncc(C#N)c1N)OCC
-5.95

Similarly, Cc1cc(Br)c(NC(=O)c2csnn2)c(Br)c1 ?
2.65

Please do the same for O=C1CCCCc2ccccc21 as well.
-25.1

Another compound to check: CN(C)c1ccc(C=Nc2cc(Cl)ccc2O)cc1
66

Also, FC(F)(F)C1(C(F)(F)F)OS2(OC(C(F)(F)F)(C(F)(F)F)c3ccccc32)c2ccccc21 please.
-1.1

Another compound to look at: Cc1nc(N)nc(C)c1N=Nc1cccc(Cl)c1
21.6

Another compound to check: COC(=O)c1cc(C(=O)c2ccccc2)cc2c1c(=O)[nH]c1ccccc12
-23.9

Same question for COc1ccc(CC2CCCNC2C(=O)O)cc1 (centres undefined) please.
-16.6

Same again, this time with O=C(O)/C=C/n1c2ccccc2c(=O)c2ccccc21
-7.7

Next entry: CNC1C(CO)OC(n2cnc3c(N)ncnc32)C1O (centres undefined)
2.75

// same read-out, input: Nc1nc(-c2ccc3c(ccc4ccccc43)c2)cs1
47.7

---

Would you mind telling me the reported growth inhibition of each entry?
assay: NCI Yeast Anticancer Drug Screen. Data for the bub3 strain (AID 167); conditions: S. cerevisiae bub3 mutant strain, at 50.0 µM, active compounds read high
About 79,000 compounds went through this panel and 15% of them were active in at least one assay; those are over-represented in the sample as a whole. The source made the active and inactive calls. No stated cut-off is given here; in the data, active means growth inhibition above about 70%; inactive means the rest.

Please report the recorded growth inhibition for O=S(=O)(O)c1cccc2c(O)cccc12 .
5.35% (inactive)

Another compound to look at: O=C1C2=C(OCCO2)C(=O)C2=C1OCO2
12.2% (inactive)

How about this compound: COCOS(C)(=O)=O
9.4% (inactive)

What about this compound? CNc1nc(SC)nc2[nH]ncc12
23% (inactive)

Please do the same for CC(C)OC(=O)NC1CCC2CCCCC2C1 (stereo not drawn) as well.
15.7% (inactive)

Then this compound: COC(=O)c1ccccc1C1CN=NC12Cc1cccc(C)c1C2=O (stereo not drawn)
28.9% (inactive)

Also CCNc1cc2oc(=O)cc(C)c2cc1C , if possible.
-19% (inactive)

One more compound: N#CC(C(=N/O)/C(=N\O)C(C#N)c1ccccc1)c1ccccc1 (stereo not drawn)
-5.75% (inactive)

Okay, and Cc1cc2ccc(OC(=O)c3ccc(N=C(N)N)cc3)cc2oc1=O ?
-24.6% (inactive)

Follow-up entry: N#CC(=Nc1ccccc1)c1cccc(Br)c1
21.4% (inactive)

And the next one, Nc1cc(Nc2ccc(Cl)[nH]c2=S)nc(N)n1 ?
18.4% (inactive)

Again, but for Cc1ccc(SSCC(O)C(O)CSSc2ccc(C)cc2)cc1 (stereo not drawn)
-5.6% (inactive)

Field entry: C=CCCCCCCCCC(=O)N(CC#N)CC(C)C
87.2% (active)
